- method: Bio-distribution: PTX levels in tumor and plasma by LC-MS/MS
- Assay type: in vivo, mice
- measurement conditions: SCID-beige, mouse, plasma, intravenous, 25 mg/kg
parameter measured: concentration at 30 min (ng/mL)
Give the number; ng/mL is assumed, so skip it.

What value of measured concentration at 30 min is listed for CC(=O)O[C@H]1C(=O)[C@@]2(C)[C@H]([C@H](OC(=O)c3ccccc3)[C@]3(O)C[C@H](OC(=O)[C@H](O)[C@@H](NC(=O)c4ccccc4)c4ccccc4)C(C)=C1C3(C)C)[C@]1(OC(C)=O)CO[C@@H]1C[C@@H]2O [PTX, paclitaxel, reference compound] ?
771

Reference source for all entries: paper PMC3299084
